FYI, the data here is from PubChem BioAssay.

composite z-score reference
target_or_test_system: Torsin-1A (Homo sapiens)
protocol_description: torsin A mutant lysate binding on microarrays – cell lysate, small-molecule microarray, COS7 lysate, 635/667 nm fluorescence, primary screen (AID 1150);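 note: score pools 667 nm emission and signal to noise measuring lysate protein binding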
condition_details: COS7 hTOR1A mutant lysate, 635 nm fluorescence, higher = more signal
Provide a numeric answer; units are not to be included.

The examples below pair each entry with its known result.
Prompt: Consider the molecule shown here: O=C(NCc1ccccc1)[C@@H]1c2ccccc2C(=O)N(C2Cc3ccccc3C2)[C@H]1c1ccc(CO)cc1 What is its recorded composite z-score?
Completion: 0.165

Prompt: Can you share its composite z-score? I mean this molecule: CC(=O)NCCCC[C@@H]1NC(=O)[C@H]2C[C@@H](C(=O)NCCCCCNC(=O)CS)[C@@H](c3ccc(O)cc3)N2C1=O
Completion: -0.711

Prompt: Can you share its composite z-score? I mean this molecule: [N-]=[N+]=Nc1ccccc1[C@H]1OC(c2ccc(OCCCO)cc2)=N[C@@]1(CCS(=O)(=O)c1ccccc1)C(=O)NCc1ccccc1
Completion: 0.786

Prompt: // lookup composite z-score for COC(=O)C(CC#Cc1ccc2c(c1)[C@]1(C(=O)N2)[C@H](c2ccc(O)cc2)N2[C@H](c3ccccc3)[C@H](c3ccccc3)OC(=O)[C@H]2[C@@H]1C(=O)N1CCN(c2ncccn2)CC1)C(=O)OC
Completion: 0.338

Prompt: Can you share its composite z-score? I mean this molecule: CCOC(=O)C[C@H]1[C@H](OC(=O)c2ccc(C(=O)c3ccccc3)cc2)[C@@H](NC(=O)c2ccccc2)c2cc(OCCCO)ccc2N1C(=O)c1ccccc1
Completion: 0.628

Prompt: Entry C=CCN1C(=O)[C@]2(O[C@H](CCO)[C@@H]([Si](C)(C)c3ccc(OC)cc3)[C@@H]2C)c2cc(N(C=O)c3ccccc3)ccc21 : reported composite z-score = ?
Completion: 0.0507

Prompt: Requested read-out: composite z-score. Entry: COc1ccc(NC(=O)O[C@H]2[C@H](OC(=O)c3cc4ccccc4[nH]3)[C@@H](OC(=O)c3cc4ccccc4[nH]3)[C@@H](OC)O[C@@H]2CO)cc1
Completion: 0.291

Prompt: So what does the record say about composite z-score for COCCOC(=O)N1C(=O)[C@@]2(c3cc(C#CC4(O)CCCCCC4)ccc31)[C@H](c1ccccc1OCCO)N1[C@H](c3ccccc3)[C@H](c3ccccc3)OC(=O)[C@H]1[C@@H]2C(=O)N1CCc2cc(OC)c(OC)cc2C1 ?
Completion: 0.336

Prompt: // query composite z-score value for entry NCCCCCCNC(=O)[C@H]1C[C@H]2C(=O)N[C@@H](Cc3ccccc3)C(=O)N2[C@H]1c1cccc(OCCO)c1
Completion: 0.916

Prompt: Can you share its composite z-score? I mean this molecule: CCCCCCc1nc(-c2ccc(-c3ccc(Cl)c(Cl)c3)o2)cc2c1[Si](C(C)C)(C(C)C)O[C@H]2c1ccccc1
Completion: 0.978

More entries:
Prompt: Query (molecule): O=C1C2C=CC(C(O)c3ccc(-c4ccccc4)s3)N(Nc3ccccc3)C2C(=O)N1c1ccccc1 (centres undefined) ; field requested: composite z-score
Completion: 1.21

Prompt: Which value of composite z-score has been reported for COC(=O)[C@@]1(Cc2ccc(OC)cc2)[C@H]2c3cc(C(=O)N4CCCC4)n(Cc4nc5ccccc5[nH]4)c3C[C@H]2CN1C(=O)c1ccccc1 in the records?
Completion: 1.7

Prompt: Which composite z-score value belongs to O=C1O[C@@H](c2ccccc2)[C@@H](c2ccccc2)N2[C@@H](c3ccccc3OCCO)[C@]3(C(=O)Nc4ccccc43)[C@@H](C(=O)O)[C@H]12 ?
Completion: 1.14

Prompt: Can you share its composite z-score? I mean this molecule: CCCC1(C(=O)OC)C=C2C(=C(c3ccccc3)C(=O)C2C)CN1 (centres undefined)
Completion: 0.0656

====

Examples of compounds with documented composite z-score follow.
Tested on: Human papillomavirus type 1a E7 protein (residues 1-88)
protocol_description: HPV1a E7 small-molecule binders, primary screen, biochemical, small-molecule microarray, residues 1-88, 635 nm (AID 1129)
condition_details: small-molecule microarray binding, fluorescence 635 nm; higher = more signal
Enter a number only.

Prompt: Look at this compound and give its reported composite z-score. NC(=O)[C@@H]1[C@H]2C(=O)O[C@H](c3ccccc3)[C@H](c3ccccc3)N2[C@H](c2ccc(OCCO)cc2)[C@@]12C(=O)Nc1ccc(C#CC3=CCCCC3)cc12
Completion: 1.21

Prompt: GET /values?readout=composite z-score&item= C[N+](C)(C)CCCCCCNC(=O)[C@H]1C[C@H]2C(=O)N[C@@H](Cc3ccccc3)C(=O)N2[C@H]1c1cccc(OCCO)c1
Completion: 0.69

More entries:
Prompt: Would you kindly share the measured composite z-score for C=C(CCCC)/C(=C/C[C@@H](OC(C)=O)c1cccc(OCCO)c1)c1cnc2ccccc2c1 ?
Completion: 0.157

Prompt: Which composite z-score value is on record for CC(C)CNC(=O)[C@@]1(Cc2ccccc2I)c2ccccc2C(=O)N(Cc2ccccc2C(F)(F)F)[C@H]1c1ccc(CO)cc1 ?
Completion: 0.0788

====

In this section we review reported z-score values for a set of compounds.
protocol_description: optical density change of DRC41 E. coli – strain DRC41, OD650, 24 h, E. coli filamentation project, primary screen (AID 1093);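 note: MC1000 strain lacking acrAB efflux and sulA so SOS filamentation is blocked; test concentration not given here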
condition_details: E. coli DRC41 growth, higher = more signal, called active from +8 up or from −8 down
Reply with the value as a number alone.

Prompt: # get_value(readout='z-score', item= CCOC(=O)C[C@H]1[C@H](OC(=O)c2ccc(-c3ccccc3)cc2)[C@@H](NC(=O)c2ccccc2)c2cc(OCCCO)ccc2N1C(=O)c1ccc2ccccc2n1 )
Completion: -0.751

---
Prompt: What does the data say about its z-score? Entry: CC(C)C(=C=CC[C@H](O)c1ccc(CO)o1)CCO
Completion: -0.253

Prompt: GET /values?readout=z-score&item= CCCNC(=O)[C@@H]1c2ccccc2C(=O)N(Cc2ccccc2OC)[C@H]1c1ccc(CO)cc1
Completion: 0.387

Prompt: Sample COCCOC(=O)N1C(=O)[C@@]2(c3cc(C#CC4(O)CCCCCC4)ccc31)[C@H](C(=O)Nc1nc3ccccc3s1)[C@H]1C(=O)O[C@H](c3ccccc3)[C@H](c3ccccc3)N1[C@@H]2c1ccc(OCCO)cc1 — what was its z-score?
Completion: 0.76

Prompt: Consider the compound O=c1cccc(-c2ccccc2Cl)o1 and give its measured z-score.
Completion: -0.252

Prompt: z-score lookup needed for CO[C@H]1O[C@H](CO)[C@@H](OC(=O)Nc2cccc(F)c2)[C@H](OC(=O)Nc2ccccc2)[C@H]1OC(=O)Nc1ccccc1 , thanks.
Completion: -0.168

Prompt: For the compound CC(C)CNC(=O)[C@@]1(Cc2ccccc2I)c2ccccc2C(=O)N(Cc2ccccc2C(F)(F)F)[C@H]1c1ccc(CO)cc1 , what z-score is on record?
Completion: 0.164

Prompt: # query: z-score of entry C[C@H]1C2[C@H](Cc3ccccc3)NC(=O)[C@]23C(=O)NCC(=O)N2CCC[C@H]2C(=O)NC/C=C/CCC/C=C/C3[C@@H]2O[C@]12C (stereo not given in full)
Completion: 1.51

Prompt: Fill in the blank: the reported z-score of [N-]=[N+]=NCc1ccccc1[C@@H]1OC(c2ccc(OCCCO)cc2)=N[C@]1(CCS(=O)(=O)c1ccccc1)C(=O)N1CCOCC1 is ____.
Completion: 1.7

====

protocol_description: probe aLAP1 signal on lysate-treated microarray – cell lysate, small-molecule microarray, COS7 lysate, primary screen (AID 1124);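 note: lysate comes from COS7 cells expressing LAP1 and is applied at 0.3 µg/mL; score merges spot fluorescence near 667 nm with signal-to-noise over triplicate slides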
condition_details: probe aLAP1, fluorescence, higher = more signal
Classification field. Basis: composite z-score. Definitions: one: < 0.02; two: ≥ 0.02 and < 0.5; three: ≥ 0.5

Prompt: Exam item: assign C=CCC(OC(C)=O)[C@@H]1[C@@H](N(Cc2ccc(-c3cccc(C(F)(F)F)c3)o2)C(=O)c2cccc3ccccc23)c2cc(OCCCO)ccc2N1C(=O)Cc1ccc2ccccc2c1 (stereo not given in full) to the correct category.
Completion: one

Prompt: Classify this compound: O=C1[C@H]2C=C(Br)[C@H](C[C@@H]2OCCCCCCO)[C@@]12CO2
Completion: two

Prompt: Which class holds O=C1O[C@H](c2ccccc2)[C@H](c2ccccc2)N2[C@H]1[C@@H](C(=O)NC[C@H](O)c1ccccc1)[C@]1(C(=O)Nc3ccc(C#CC4=CCCCC4)cc31)[C@H]2c1ccccc1OCCO ?
Completion: three

Prompt: In plain terms, what class is COC(=O)[C@@]1(Cc2ccccc2)[C@H]2c3cc(C(=O)N4CCCC4)n(Cc4c(CO)[nH]cc(C)c4=O)c3C[C@H]2CN1C(=O)c1ccccc1 ?
Completion: three

Prompt: For this compound, which bin applies? O=C1C2C=CC(C(O)COCc3ccccc3)N(Nc3ccc([N+](=O)[O-])cc3)C2C(=O)N1c1ccccc1 (stereo not given)
Completion: two

Others:
Prompt: Given CN(C)C(=O)[C@]1(Cc2ccccc2)N=C(c2ccc(OCCCO)cc2)O[C@@H]1c1ccccc1N=[N+]=[N-] , name the class its composite z-score places it in.
Completion: three

Prompt: Form: Item = CC(=CC1CCCCC1)[C@@H](NC(=O)c1cccnc1)c1ccc(-c2ccccc2)cc1 ; Class = ?
Completion: one

Prompt: State the band of CC(=O)n1cc(C(O)C2C=CC3C(=O)NC(=O)C3N2Nc2ccccn2)c2ccccc21 (stereo not given)
Completion: two

Prompt: State the band of O=C(CS)NCCCCCNC(=O)[C@H]1C[C@H]2C(=O)NCC(=O)N2[C@H]1c1cccc(OCCO)c1
Completion: one

Prompt: Tag the class for COC(=O)[C@@]1(Cc2ccc(OC)cc2)[C@H]2c3cc(C(=O)N4CCCC4)n(CCSCCO)c3C[C@H]2CN1C(=O)c1ccccc1
Completion: two

Prompt: Quick check: band for Cc1ccc(S[C@]2(C(=O)O)CC(=O)N(Cc3ccccc3C(F)(F)F)[C@@H]2c2ccc(CO)cc2I)cc1
Completion: three
